Below, each of the binders is paired with its reported OD405 value.
system_tested: T1, purified recombinant human CD40 protein (human, UniProt P25942 21-193)
T1 construct: also called recombinant CD40
test_method_notes: ELISA on coated recombinant human CD40; chimeric antibody supernatant

binder: 192 rabbit-human chimeric anti-CD40 antibody (antibody, V domains shown, tested as cell culture supernatant) VH: QSVEESGGRLVTPGTPLTLTCTVSGFSLSSYAMNWVRQAPGKGLEYTGMIATGGKTFYAGWAEGRFTISKTSTTVDLHIASLTTEDTATYYCARGYVGDIYFGFWGPGTLVTVSS VL: AVLTQTPSPVSAGVGGTVTISCQSSKSVYYNTHLSWFQQKPGQPPKLLIYRASTLASGVPSRFKGSGSGTQFTLTISDVQCDDAATYYCAGGYANDVDNGFGGGTEVVVK
OD405 (OD405): 2

binder: 6E1 rabbit-human chimeric anti-CD40 antibody (antibody, V domains shown, tested as cell culture supernatant) VH: QSVEESGGRLVTPGTPLTLTCTVSGFSLSSYAMTWVRQAPGKGLEWLGIIDTIGSTYYASWAKGRFTISKTSTTVDLKITSPTTEDTATYFCVRDYIGSTSGKKLWGRGTLVTVSS VL: AVLTQTPSSVEAAVGGTVSISCQSSKSVYYKNWLAWYQQKPGQPPKLLIYGASTLASGVPSRFKGSGSGAQFTLTISDVQCDDAATYYCAGGYSSDSDTGFGGGTEVVVK
OD405 (OD405): 1.82

binder: 2E11 rabbit-human chimeric anti-CD40 antibody (antibody, V domains shown, tested as cell culture supernatant in the ELISA) VH: QSLEESGGRLVTPGTPLTLTCTVSGIDLSRYAMGWVRQAPGKGLEFIGIITSNSGDTYYATWAKGRFTISKTSTTVDLKITSPTTEDTATYFCVRGYIGAPNLWGPGTLVTVSS VL: AVLTQTPSPVSAAVGGTVSISCQSSKTVYYNNYLSWFQQKPGQPPKELIYYASTLSSGVPSRFKGSGSGTQFTLTISDVQCDDAATYYCAGGYNSDSDNTFGGGTEVVVK
OD405 (OD405): 1.79

binder: 2E3 rabbit-human chimeric anti-CD40 antibody (antibody, V domains shown, tested as cell culture supernatant) VH: QSVEESGGRLVTPGTPLTLTCTVSGFSLSTYAMSWVRQAPGKGLEWIGIIDGSSFTVYANWAKGRFTISKTSTTVDLKMTSLTASDTATYFCARGATFFGLWGPGTLVTVSS VL: DVVMTQTPASVSAAVGGTVTIKCQASQSISGVLAWYQQKPGQPPKLLIYRAADLASGVPSRFKGSGSGTEFTLTINDLECDDAATYYCQSYYYSNSGSYSYAFGGGTEVVVK
OD405 (OD405): 1.62

binder: 8C6 rabbit-human chimeric anti-CD40 antibody (antibody, V domains shown, tested as cell culture supernatant) VH: QSVEESGGRLVTPGTPLTLTCTASGFTITSYYIIWVRQAPGEGLEYIGIIDTGGSADYASWAKGRFTISRTSTTVDLKMTSLTTEDTATYFCARADVGSVGSIWGPGTLVTVSS VL: DVAMTQTPSSVSAAVGGTVTIECQASQNIYTNLAWYQQKPGQRPKLLIYYASTLASGVPSRFSGSGSGTEFSLTISDLECADAATYYCQCTYIKWRHVCGFGGGTEVVVK
OD405 (OD405): 1.97

binder: 7D2 rabbit-human chimeric anti-CD40 antibody (antibody, V domains shown, tested as cell culture supernatant) VH: QSVEESGGRLVTPGTPLTLTCTVSGFSLNNYYMGWVRQAPGKGLEYIGWITSGRIAAYANWAKGRFTISKTSTTVDLKITSPTIGDTATHFCATTTTSDAYFFPRLGLWGQGTLVTVSS VL: AVLTQTPSPVSAAVEGTVTINCQSSQSVDNNRLSWFQQKPGQPPKLLIYDASTLASGVPPRFKGSGSGTQFTLTISDVQCDDAATYYCAGGYSFPSENAFGGGTEVVVK
OD405 (OD405): 1.82

binder: 8C10 rabbit-human chimeric anti-CD40 antibody (antibody, V domains shown, tested as cell culture supernatant) VH: QSLAESGGRLVTPGGSLTLTCTVSGIDLSTDGMGWVRQGPGKGLEWIGTIRVTGGTDFATWAKGRFTIAKTSSTTVDLKMTSLTTEDTATYFCARGHANNDAYVYFNLWGQGTLVTVSS VL: AFELTQTPASVEAGVGGTVTIKCQASQSIDRYLAWYQQKPGQPPKLLMAAAANLASGVPSRFKGSRSGTEFTLTISDLECADGATYYCQSYFTSDDGNTFGGGTEVVVK
OD405 (OD405): 2.09

binder: 6C2 rabbit-human chimeric anti-CD40 antibody (antibody, V domains shown, tested as cell culture supernatant) VH: QSVEESGGRLVTPGTPLTLTCTASGFSLSTYYMIWVRQAPGKGLDYIGIISSNGNAYYATWAKGRFTISKTSTTVDLKMTSPTTEDTATYFCARAASIANSYYFNVWGPGTLVTVSS VL: AVLTQTPSPVSAAVGGTVSISCQSSQSVRDNNWLSWFQQKPGHPPKLLIYGASNLESGVPSRFSGSGSGTEFTLTISDVQCDDAATYYCQGGFSTYSDNSFGGGTEVVVK
OD405 (OD405): 1.96

binder: 194 rabbit-human chimeric anti-CD40 antibody (antibody, V domains shown, tested as cell culture supernatant) VH: QSVEESGGRLVTPGTPLTLTCTVSGFSLSSYAMSWVRQAPGKGLEYIGVMNTGGSAHYATWAKGRFTISKTSTTVDLKITSPTTADTATYFCARGYIGSPNLWGPGTLVTVSS VL: AVLTQTPSPVSAAVGGTVSISCQSSKSVYYNNYLSWFQQKPGQPPKQLIYLASTLASGVPSRFKGSGSGTEFTLTISDVQCADAATYYCAGGYTDSDDAFGGGTEVVVK
OD405 (OD405): 1.69

binder: 196 rabbit-human chimeric anti-CD40 antibody (antibody, V domains shown, tested as cell culture supernatant) VH: QSVEESGGRLVTPGTPLTLTCTVSGFSLSAYAIHWVRQAPGKGLEYIGIIDAGGNIVYATWALGRFTISKTSTTVDLKITSPTTEDTATYFCGRGLSSYSNSAMDLWGPGTLVTVSS VL: DVVMTQTPASVSEPVGGTVTMKCQASQNIYTYLAWYQQKPGRPPKLLIYQASTLASGVSSRFSGSGSGTEFTLTISDLECADAATYYCQSTAGNAYNAFGGGTEVVVK
OD405 (OD405): 1.92
